- Test system: Saccharomyces cerevisiae;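 note: PSI is a weighted mean of sequencing reads over stability bins, variants kept only with over 10 reads, mCherry proximal and sfGFP distal, peptide attached via GGGS linker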
- assay_name: protein stability index of tFT-peptide fusion (C-terminal peptide) (PSI (0-1 scale)); higher = more stable (slower turnover)
- test_settings: genetic background: wild type; temperature: 37 C
Recorded protein stability index values for a group of sequences are listed next.
value_kind: protein stability index

{"columns": ["seq", "value_kind", "quantitative_result"],
 "data": [
  ["CFSLLFYTLSLL", "protein stability index", 0.409],
  ["WRCECELASACA", "protein stability index", 0.486],
  ["GKWFSWNAIWIR", "protein stability index", 0.101],
  ["DFWMLLFGIIFA", "protein stability index", 0.538],
  ["NLDRYYKKIKLI", "protein stability index", 0.0913],
  ["PVPPSLLHRPPF", "protein stability index", 0.727],
  ["LDTTSRSRAKIS", "protein stability index", 0.138],
  ["AFFRCKCYVGTP", "protein stability index", 0.561],
  ["FRCPHAVKLVLV", "protein stability index", 0.332],
  ["PFAFLSLVLLLP", "protein stability index", 0.482],
  ["VRLHIAMWLRRC", "protein stability index", 0.19],
  ["PHGASLCVPPSP", "protein stability index", 0.699],
  ["YGHLPLLVLFCV", "protein stability index", 0.399],
  ["WFLMVILYTVYG", "protein stability index", 0.278],
  ["GNSAGSVGGGRF", "protein stability index", 0.725],
  ["TVERKMYWQRWG", "protein stability index", 0.497],
  ["GLWLRVCIVAWV", "protein stability index", 0.144],
  ["VFYRPFFVLFFV", "protein stability index", 0.152],
  ["GGTGGAGSRGQI", "protein stability index", 0.732],
  ["TPPLPTTPTLNS", "protein stability index", 0.684],
  ["DSSRRKRLICMN", "protein stability index", 0.341],
  ["ACGGGSNVHRAG", "protein stability index", 0.752],
  ["PDPIFGEWVYMV", "protein stability index", 0.384],
  ["VLCFTSAYHRLV", "protein stability index", 0.517],
  ["GGWFFWVGAWVV", "protein stability index", 0.214],
  ["LLSLPTTNLMAF", "protein stability index", 0.565],
  ["GYACSIFYLRCV", "protein stability index", 0.444],
  ["IVSFRLDLSLAV", "protein stability index", 0.547],
  ["CLQYRACLILLT", "protein stability index", 0.425],
  ["VLLCFFLGIVGF", "protein stability index", 0.489],
  ["IDLISRVTVVAR", "protein stability index", 0.441],
  ["FFRVCNALLLVC", "protein stability index", 0.0662],
  ["WFFRLFFLFFSG", "protein stability index", 0.412],
  ["FFLFLFFFLRGS", "protein stability index", 0.511],
  ["IWVWMLSVWLGG", "protein stability index", 0.407],
  ["SCLVLDYCFSLV", "protein stability index", 0.613],
  ["DIRLWISCTLWF", "protein stability index", 0.37],
  ["FFCLFCLSCWVL", "protein stability index", 0.386],
  ["VVLVLLCIGRLL", "protein stability index", 0.475],
  ["CGSLDLPHQCLL", "protein stability index", 0.774],
  ["LLFLVCFFPSIS", "protein stability index", 0.52],
  ["LGCFGSSFVFCC", "protein stability index", 0.355],
  ["LWLVSLLVLWLT", "protein stability index", 0.383],
  ["PHSMRTTTIMCS", "protein stability index", 0.436],
  ["WFCCAQRGVIVG", "protein stability index", 0.478],
  ["VGLWCWSFVLVW", "protein stability index", 0.153],
  ["LMVLISVMFSLG", "protein stability index", 0.231],
  ["PYSLYASSSSPL", "protein stability index", 0.716],
  ["ERRWVLVAWRFK", "protein stability index", 0.6],
  ["FLIVLLVIFFGF", "protein stability index", 0.357],
  ["LVSLCYAYPRYC", "protein stability index", 0.583],
  ["LCLLPVCLWDVG", "protein stability index", 0.49],
  ["LFWFRGTIVTPR", "protein stability index", 0.705],
  ["TVGVGWVWVGVL", "protein stability index", 0.576],
  ["MQFVALFLVGLL", "protein stability index", 0.509],
  ["VGGGCVVVVRWG", "protein stability index", 0.594],
  ["RLIARFKILRCI", "protein stability index", 0.0702],
  ["FFCCRLPCLFVL", "protein stability index", 0.194],
  ["RKVWSLCWFVHL", "protein stability index", 0.0795],
  ["SCFRFFFLFLFF", "protein stability index", 0.312]
]}
